Hi there, I'd appreciate the recorded gcPBM binding intensity (ln) for every entry that follows.
System: PF3D7_0420300 AP2 domain 1 (GST-tagged)
Assay: gcPBM binding intensity (ln(normalized median fluorescence intensity)); higher = stronger DNA binding
Over roughly 25,000 sequences, “ln(normalized median fluorescence intensity)” has its median near 9.3; the highest 2% begin near 10. The sample holds the highest values, similar sequences and a random draw of the others, so the mix is not that of the screen.
Answers are plain numbers.

The examples below pair each entry with its known result.
// query Which gcPBM binding intensity (ln) reading was recorded for the sequence ATGGCCATAATATAGACACACATATATAAATATATA [CACACA_site2230] ?
// result 9.28

// query Which gcPBM binding intensity (ln) reading was recorded for the sequence CATATATATATATATACACACATATATATTTTCTTT [CACACA_site1457] ?
// result 9.46

// query Which gcPBM binding intensity (ln) reading was recorded for the sequence AATGAAAATAAATTAACACACAATTTTAATATTGTT [CACACA_site1306] ?
// result 9.32

// query Which gcPBM binding intensity (ln) reading was recorded for the sequence TCATAGTATAGACACACACACACACGCATATAAATA [CACACA_site6915] ?
// result 10.2

// query Which gcPBM binding intensity (ln) reading was recorded for the sequence AACATACATAAACACACACACACACCCACAGAGACA [CACACA_site4430] ?
// result 10.4

Please state, for each entry, its recorded gcPBM binding intensity (ln).
1. AATATATATATACATACATGCATACATATATATATA [TGCATGCA_site784]
2. ATAGTATACGGACACACACACACACCGATATATATA [CACACA_site5032]
3. TATTTTATTTTTTTATGTACACAAAAAAAAAAAAAA [XGTACX_site945]
4. AATGTACACCCACCCACACACAAACAAATATATATA [CACACA_site5521]
5. CATATACTCGGACACACACACACACCGACAAAAAAA [CACACA_site4433]
6. TACACGCATAGACACACACACACACGCATATAAATA [CACACA_site6446]

// result
1. 9.24
2. 10.3
3. 8.63
4. 10.2
5. 10.1
6. 10.3

Please state, for each entry, its recorded gcPBM binding intensity (ln).
1. AATGCCTTGTTGAGGTGTACTGAATGTTATTTTAAT [XGTACX_site3255]
2. TAAATAAATTTATACACACACACACCGATATATATA [CACACA_site4622]
3. GTTAAAAAAAGGAGAGATCTCACACAAATATATATA [GTGCAC_negctrl_site117]

// result
1: 9.19; 2: 10.1; 3: 9.22

Please state, for each entry, its recorded gcPBM binding intensity (ln).
1. ATAGTATACAGACACACACACACACCGATATATATA [CACACA_site8511]
2. TATATAAAAAATTCAATACACACCATATATAAATAT [CACACA_site3987]
3. GTGCATATCTGATATACACACAATAAAATAGTATGT [CACACA_site7203]
4. CATATACATAGACACACACACACATAAATAAATATA [CACACA_site6749]
5. ATAAAATACAGATAAACACACATATAAACACCCATA [CACACA_site5381]

// result
1: 10.3; 2: 9.66; 3: 9.33; 4: 10.1; 5: 9.92
